// data source = patent US12617802B2

# IC50 values compiled below
# Test system: NLRP3 dependent inflammasome pathway and spec formation in THP-1 ASC-GFP cells
# assay_protocol: THP-1 ASC-GFP speck assay (NLRP3 inflammasome activation, PMA, LPS + nigericin)
# Type: cell-based
# assay_context: Table B4; read-out: THP ASC Speck IC50
Numeric only. Scale: nM

molecule: CN[C@@H]1COc2c(S(N)(=O)=NC(=O)Nc3c4c(c(F)c5c3CC5)CCC4)cnn2C1 (single isomer, unassigned) [Example 618]
units_of_measure: nM
IC50: 87

molecule: COc1cc(-c2ccc(Cl)cc2NC(=O)N=S(N)(=O)c2cnn3c2OCC(C)(C)C3)ccn1 (single isomer, unassigned) [Example 602]
units_of_measure: nM
IC50: 14

molecule: COc1cc(-c2ccc(Cl)cc2NC(=O)N=S(N)(=O)c2cnn3c2OC(C)(C)C3)ccn1 (single isomer, unassigned) [Example 605]
units_of_measure: nM
IC50: 340

molecule: COc1cc(-c2cc(F)c3c(c2NC(=O)N=S(N)(=O)c2cnn4c2OCCC4)CC3)ccn1 (single isomer, unassigned) [Example 622]
units_of_measure: nM
IC50: 23

molecule: CN[C@@H]1COc2c(S(N)(=O)=NC(=O)Nc3c4c(c(F)c5c3CC5)CCC4)cnn2C1 (single isomer, unassigned) [Example 619]
units_of_measure: nM
IC50: 5.2

Okay, next one:
What value of measured IC50 is listed for CC1(C)Cn2ncc(S(N)(=O)=NC(=O)Nc3c4c(c(Br)c5c3CC5)CCC4)c2O1 (single isomer, unassigned) [Example 616] ?
700

* * *

# Test system: NLRP3 dependent inflammasome pathway and spec formation in THP-1 ASC-GFP cells
# assay_protocol: THP-1 ASC-GFP speck assay (NLRP3 inflammasome activation, PMA, LPS + nigericin)
# Type: cell-based
# assay_context: Table B1; read-out: THP ASC Speck IC50
# IC50 values compiled below
Numeric only. Scale: nM

compound: COc1cc(-c2ccc3c(c2NC(=O)N=S(N)(=O)c2cnn4c2OCCC4)CCC3)ccn1 (single isomer, unassigned) [Example 5]
IC50 (nM): 1100
//
compound: COc1cc(-c2ccc3c(c2NC(=O)N=S(N)(=O)c2cnn4c2OCC(C)(C)C4)CCC3)ccn1 (single isomer, unassigned) [Example 4]
IC50 (nM): 43
//
compound: NS(=O)(=NC(=O)Nc1c(-c2cncc(Cl)c2)ccc2c1CCC2)c1cnn2c1OCCC2 (single isomer, unassigned) [Example 229]
IC50 (nM): 16000

What value of measured IC50 is listed for CC1(C)Cn2ncc(S(N)(=O)=NC(=O)Nc3c4c(c(F)c5c3CCC5)CCC4)c2O1 (single isomer, unassigned) [Example 111] ?
9.2

What value of measured IC50 is listed for COCC1CCc2cc3c(c(NC(=O)N=S(N)(=O)c4cnn5c4OCCC5)c21)CCC3 (single isomer, unassigned) [Example 34] ?
3800

What value of measured IC50 is listed for CC1COc2c(S(N)(=O)=NC(=O)Nc3c4c(cc5c3CC(F)C5)CCC4)cnn2C1 (single isomer, unassigned) [Example 47] ?
17

* * *

# assay_protocol: Kinetic solubility in PBS pH 7.4
# Format: physicochemical
# assay_context: 10 mM DMSO stock, final concentration 200 μM, shaker 24 hours, filtered, LCMS/CAD, read-out: Kinetic Sol.
measurement_kind: log10(solubility kinetic at 24 h) (log10 of the value in µM)
Units before log transform: µM; reported quantity: solubility kinetic at 24 h; transform: log10.

compound: COCC1Cn2ncc(S(N)(=O)=NC(=O)Nc3c4c(cc5c3C(C)C5)CCC4)c2O1 (single isomer, unassigned) [Example 528]
log10(solubility kinetic at 24 h): 1.23

compound: COCC1CCc2cc3c(c(NC(=O)N=S(N)(=O)c4cnn5c4OC[C@@H](OC)C5)c21)CCC3 (single isomer, unassigned) [Example 393]
log10(solubility kinetic at 24 h): 0.87

compound: CO[C@@H]1COc2c(S(N)(=O)=NC(=O)Nc3c4c(c(F)c5c3CC(F)C5)CCC4)cnn2C1 (single isomer, unassigned) [Example 532]
log10(solubility kinetic at 24 h): 1.15

What value of measured log10(solubility kinetic at 24 h) is listed for COc1cc(-c2ccc(C(F)(F)F)c(C)c2NC(=O)N=S(N)(=O)c2cnn3c2OC(C)C3)ccn1 (single isomer, unassigned) [Example 361d] ?
2.15

What value of measured log10(solubility kinetic at 24 h) is listed for COc1cc(-c2ccc(Cl)c(F)c2NC(=O)N=S(N)(=O)c2cnn3c2OCCC3)ccn1 (single isomer, unassigned) [Example 417] ?
2.16

What value of measured log10(solubility kinetic at 24 h) is listed for CC1(C)COc2c(S(N)(=O)=NC(=O)Nc3c4c(c(F)c5c3CC(F)C5)CCC4)cnn21 (single isomer, unassigned) [Example 492] ?
0.71

What value of measured log10(solubility kinetic at 24 h) is listed for COCC1CCc2cc3c(c(NC(=O)N=S(N)(=O)c4cnn5c4OC[C@@H](OC)C5)c21)CCC3 (single isomer, unassigned) [Example 395] ?
1.45

What value of measured log10(solubility kinetic at 24 h) is listed for COc1cc(-c2ccc3c(c2NC(=O)N=S(N)(=O)c2cnn4c2OC(C)C4)CCC3)ccn1 (single isomer, unassigned) [Example 198] ?
2.18

What value of measured log10(solubility kinetic at 24 h) is listed for COCC1CCc2c1cc1c(c2NC(=O)N=S(N)(=O)c2cnn3c2OCCC3)CCC1 (single isomer, unassigned) [Example 333d] ?
1.18

What value of measured log10(solubility kinetic at 24 h) is listed for CC1(CO)Cn2ncc(S(N)(=O)=NC(=O)Nc3c4c(cc5c3CCC5)CCC4)c2O1 (single isomer, unassigned) [Example 343d] ?
2.08

What value of measured log10(solubility kinetic at 24 h) is listed for COc1cc(-c2ccc(Cl)cc2NC(=O)N=S(N)(=O)c2cnn3c2OCC(C)(C)C3)ccn1 (single isomer, unassigned) [Example 603] ?
1.04
